Target: T1, FcγRIIB (form not stated) (UniProt P31994 43-217, limits assumed)
T1 construct: also called FcγRIIB (ELISA)
T1 sequence (looked up): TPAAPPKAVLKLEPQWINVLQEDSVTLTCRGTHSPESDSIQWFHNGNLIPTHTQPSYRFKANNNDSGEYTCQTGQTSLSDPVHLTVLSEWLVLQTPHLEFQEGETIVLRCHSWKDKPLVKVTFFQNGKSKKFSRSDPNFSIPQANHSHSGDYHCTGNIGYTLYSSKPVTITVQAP
Test: ELISA
Quantity Name: binding result

binder="ch4-4-20 T256S, V305I, K334E, N390S (antibody) heavy: ASTKGPSVFPLAPSSKSTSGGTAALGCLVKDYFPEPVTVSWNSGALTSGVHTFPAVLQSSGLYSLSSVVTVPSSSLGTQTYICNVNHKPSNTKVDKKVEPKSCDKTHTCPPCPAPELLGGPSVFLFPPKPKDTLMISRSPEVTCVVVDVSHEDPEVKFNWYVDGVEVHNAKTKPREEQYNSTYRVVSILTVLHQDWLNGKEYKCKVSNKALPAPIEETISKAKGQPREPQVYTLPPSRDELTKNQVSLTCLVKGFYPSDIAVEWESNGQPENSYKTTPPVLDSDGSFFLYSKLTVDKSRWQQGNVFSCSVMHEALHNHYTQKSLSLSPGK" result=binds
